- Test details: qHTS of pediatric cancer cell lines to identify multiple opportunities for drug repurposing: Confirmatory screen for BT-12 cells (AID 1347112);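 also: viability read after 48 h of compound exposure; nearly all actives have a fitted effect of over 55% in size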
- Measurement setup: BT-12 rhabdoid tumor cells, viability; series mostly up to 45.9 µM
Inconclusive results are not listed. Active and inactive are the calls of the source. Calls follow the shape of the dose curve; as a rule, active = well fitted cell-killing curve with a large enough effect; inconclusive = small, poorly fitted or top-dose-only effect; inactive = flat fitted curve, though single readings scatter.
Parameter call: string, one of active, inactive

CO[C@H]1/C=C\O[C@@]2(C)Oc3c(C)c(O)c4c(O)c(c5c(nc6cc(C)ccn65)c4c3C2=O)NC(=O)C(C)=CC=C[C@H](C)[C@H](O)[C@@H](C)[C@@H](O)[C@@H](C)[C@H](OC(C)=O)[C@H]1C ... inactive

Proceed to the following item.
Enquiry: Tell me the assay call for C[C@@H]1O[C@@H](O[C@H]2CC[C@@]3(C)[C@H](CC[C@@H]4[C@H]3C[C@@H](O)[C@]3(C)[C@@H](C5=CC(=O)OC5)CC[C@]43O)C2)C[C@H](O)[C@@H]1O[C@H]1C[C@H](O)[C@H](O[C@H]2C[C@H](O)[C@@H](O)[C@@H](C)O2)[C@H](C)O1 (stereo in doubt) please.
Return: active
